- Assay Text: clinical
- Condition Details: human, plasma, intravenous, Weight-Adjusted CL, Geometric Mean (individual Bayesian estimates), Including Additional 11 Subjects; 28 weeks GA-<1 month (n = 28)
Measured Property: clearance (mL/min/kg)
One number for each entry, in mL/min/kg.

The recorded clearance for entry `Cc1cccc([C@H](C)c2cnc[nH]2)c1C` equals 15.5

###

- Assay Text: clinical
- Condition Details: human, plasma, intravenous, Volume of Distribution, Geo. Mean of individual Bayesian estimates, 1 month-<6 months (n = 14)
Measured Property: Vd (L)
Answers are plain numbers, in L.

The recorded Vd for entry `Cc1cccc([C@H](C)c2cnc[nH]2)c1C` equals 17.3

###

- Assay Text: clinical
- Condition Details: human, plasma, intravenous, Weight-Adjusted Vd, Geometric Mean (individual Bayesian estimates), Including Additional 11 Subjects; 6 months-<12 months (n = 16)
Measured Property: Vd (L/kg)
One number for each entry, in L/kg.

The recorded Vd for entry `Cc1cccc([C@H](C)c2cnc[nH]2)c1C` equals 2.89

###

- Assay Text: clinical
- Condition Details: human, plasma, intravenous, Vd Median, Dose Level 4, LD 1.00/CD 2.00 μg/kg/hr; full evaluable population
Measured Property: Vd
Output should be the measured figure followed by the unit it is expressed in.

The recorded Vd for entry `Cc1cccc([C@H](C)c2cnc[nH]2)c1C` equals 57.8 L

###

- Assay Text: clinical
- Condition Details: human, in vivo, apparent (mean) t1/2
Measured Property: half-life

The recorded half-life for entry `Cc1cccc([C@H](C)c2cnc[nH]2)c1C` equals 2.33 h

###

- Assay Text: clinical
- Condition Details: human, plasma, intravenous, Cmax Median, Dose Level 4, LD 1.00/CD 2.00 μg/kg/hr; full evaluable population
Measured Property: Cmax (ng/mL)
One number for each entry, in ng/mL.

The recorded Cmax for entry `Cc1cccc([C@H](C)c2cnc[nH]2)c1C` equals 2.69

###

- Assay Text: clinical
- Condition Details: human, plasma, intravenous, AUC0-t Mean, Dose Level 1, LD 0.25/CD 0.2 μg/kg/hr; full evaluable population
Measured Property: AUC(0-t) (ng·h/mL)
One number for each entry, in ng·h/mL.

The recorded AUC(0-t) for entry `Cc1cccc([C@H](C)c2cnc[nH]2)c1C` equals 2.68

###

- Assay Text: clinical
- Condition Details: human, plasma, intravenous, Volume of Distribution, Geo. Mean of individual Bayesian estimates, 12 months-<24 months (n = 13)
Measured Property: Vd (L)
Give bare numbers, in L.

The recorded Vd for entry `Cc1cccc([C@H](C)c2cnc[nH]2)c1C` equals 23.9

###

- Assay Text: clinical
- Condition Details: human, plasma, intravenous, Cmax, Table 30 key summary (mean); Dose Level 1, LD 0.25/CD 0.2 μg/kg/hr; full evaluable population
Measured Property: Cmax (ng/mL)
Give bare numbers, in ng/mL.

The recorded Cmax for entry `Cc1cccc([C@H](C)c2cnc[nH]2)c1C` equals 0.48

###

- Assay Text: clinical
- Condition Details: human, plasma, intravenous, Vss Median, Dose Level 3, LD 1.00/CD 0.7 μg/kg/hr; full evaluable population
Measured Property: Vd
Output should be the measured figure followed by the unit it is expressed in.

The recorded Vd for entry `Cc1cccc([C@H](C)c2cnc[nH]2)c1C` equals 30.4 L

###

- Assay Text: clinical
- Condition Details: human, plasma, intravenous, CL Mean, Dose Level 3, LD 1.00/CD 0.7 μg/kg/hr; full evaluable population
Measured Property: clearance (mL/min)
Give bare numbers, in mL/min.

The recorded clearance for entry `Cc1cccc([C@H](C)c2cnc[nH]2)c1C` equals 309

Cited source: patent US20130096170A1
